tested on: A498; experiment: Cytotoxicity against human A498 cells assessed as cell growth at 10^-5 M after 48 hrs by SRB assay; assay type: functional; conditions: A498, 48 h, read-out: Activity
measured attribute: growth at 10 µM (%)

entry smiles | target or test system | output unit | reported result
Nc1c(C(=O)Nc2ccc(F)cc2)nnn1-c1cccc(C(F)(F)F)c1 | A498 | % | 81.7
Cc1cccc(C)c1NC(=O)c1nnn(-c2ccc(F)cc2)c1N | A498 | % | 78.7
Cc1c(C(=O)NCc2ccco2)nnn1-c1ccc2noc(-c3ccc(Cl)cc3)c2c1 | A498 | % | 56.2
Nc1c(C(=O)NC2CCCC2)nnn1-c1cccc(C(F)(F)F)c1 | A498 | % | 89.1
